# testedOn: SSTR4 (Homo sapiens)
# Construct: host or cells: CHO-K1
# Sequence (P31391 whole entry): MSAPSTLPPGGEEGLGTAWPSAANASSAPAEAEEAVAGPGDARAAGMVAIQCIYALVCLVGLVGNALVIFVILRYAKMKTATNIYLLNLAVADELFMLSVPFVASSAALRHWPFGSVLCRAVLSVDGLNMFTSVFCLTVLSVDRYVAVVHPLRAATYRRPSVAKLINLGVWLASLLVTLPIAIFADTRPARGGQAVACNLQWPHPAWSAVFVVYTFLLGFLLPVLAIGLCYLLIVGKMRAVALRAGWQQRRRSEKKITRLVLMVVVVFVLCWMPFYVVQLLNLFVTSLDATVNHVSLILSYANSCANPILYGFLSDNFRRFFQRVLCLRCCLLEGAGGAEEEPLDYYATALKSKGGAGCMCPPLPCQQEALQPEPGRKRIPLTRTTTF
# testSummary: SSTR4 I-125 somatostatin competition binding assay (CHO-K1 membranes)
# studyConditions: competition with I-125 somatostatin, membranes from CHO-K1 overexpressing SSTR4; read-out: SSTR4 Binding pIC50 (converted)
Param label: returns criterion met when IC50 < 200 nM, returns criterion not met otherwise, including exact equality.

# compound, discreteLabel
rows = [
    ("CCN1CCCC1CC(=O)NC(C)(C)c1nccc2occc12 (centres unmarked)", "criterion not met"),
    ("O=C(CCN1CCC1)N[C@H](c1cc(F)ccc1F)C(F)F (single isomer, unassigned)", "criterion not met"),
    ("Cc1cccnc1OCC1(NC(=O)[C@H](C)[C@@H]2CCCN2C)CC1 (single isomer, unassigned)", "criterion met"),
    ("Cc1cccc2c(C(C)(C)NC(=O)C[C@@H]3CCCCN3C)noc12 (single isomer, unassigned)", "criterion met"),
]
